// reported pKi for each item listed
Molecular target: KOR (Homo sapiens)
Assay type: binding
Conditions: read-out: Ki a
Keep in mind that pKi stands for -log10 of concentration in molar terms.

Please review the following examples before continuing.
COC(=O)[C@@H]1C[C@H](OC(=O)CCl)C(=O)[C@H]2[C@@]1(C)CC[C@H]1C(=O)O[C@H](c3ccoc3)C[C@]21C ... 8.68
COC(=O)C1CC(OC(=O)C(C)Cl)C(=O)C2C1(C)CCC1C(=O)OC(c3ccoc3)CC12C (single isomer, unassigned) [RB-55-2, (22-R)-22-Chloro-22-methylsalvinorin A] ... 7.24
COC(=O)C1CC(OC(=O)C(C)Cl)C(=O)C2C1(C)CCC1C(=O)OC(c3ccoc3)CC12C (single isomer, unassigned) [RB-55-1, (22-S)-22-Chloro-22-methylsalvinorin A] ... 7.52

# next compound below
Exercise: What measured pKi goes with "COCC(=O)O[C@H]1C[C@@H](C(=O)OC)[C@]2(C)CC[C@H]3C(=O)O[C@H](c4ccoc4)C[C@]3(C)[C@H]2C1=O" ?
Key: 8.24

---

Biological target: KOR (Homo sapiens, UniProt P41145)
Sequence (P41145 whole entry): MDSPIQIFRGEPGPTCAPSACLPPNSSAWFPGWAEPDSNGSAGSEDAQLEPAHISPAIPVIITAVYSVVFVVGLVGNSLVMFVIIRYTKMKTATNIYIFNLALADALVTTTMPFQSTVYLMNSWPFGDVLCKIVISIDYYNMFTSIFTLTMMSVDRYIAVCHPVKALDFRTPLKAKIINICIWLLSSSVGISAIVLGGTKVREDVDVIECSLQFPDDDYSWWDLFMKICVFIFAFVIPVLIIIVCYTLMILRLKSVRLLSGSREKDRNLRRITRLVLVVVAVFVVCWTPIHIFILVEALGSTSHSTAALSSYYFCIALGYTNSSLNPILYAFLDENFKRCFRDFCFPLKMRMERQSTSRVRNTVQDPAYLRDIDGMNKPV
Assay: biochemical
Type: biochemical
value-type: Relative Emax

COC(=O)C1CC(OC(=O)C(C)Cl)C(=O)C2C1(C)CCC1C(=O)OC(c3ccoc3)CC12C (single isomer, unassigned) [RB-55-2, (22-R)-22-Chloro-22-methylsalvinorin A] ... 98 +/− 8%

Exercise: GET /values?readout=Relative Emax&item= "COC(=O)[C@@H]1C[C@H](OC(=O)CCl)C(=O)[C@H]2[C@@]1(C)CC[C@H]1C(=O)O[C@H](c3ccoc3)C[C@]21C"
Key: 85 ± 3%

Exercise: Another compound to look at: "COCC(=O)O[C@H]1C[C@@H](C(=O)OC)[C@]2(C)CC[C@H]3C(=O)O[C@H](c4ccoc4)C[C@]3(C)[C@H]2C1=O"
Key: 99 +/− 11%

---

Molecular target: KOR (Homo sapiens)
Assay: biochemical
Assay type: binding
Settings: EC50 for wash-resistant inhibition of binding
value-type: pEC50
Please note pEC50 is a logarithmic value: minus log10 of concentration in mol/L. Answer with that number alone.

Exercise: Fill in the blank: the reported pEC50 of COC(=O)[C@@H]1C[C@H](OC(=O)CSC#N)C(=O)[C@H]2[C@@]1(C)CC[C@H]1C(=O)O[C@H](c3ccoc3)C[C@]21C [RB-64, 22-Thiocyanatosalvinorin A] is ____.
Key: 5.05

---

Target: KOR (Homo sapiens)
Format: binding
Conditions: read-out: Ki b
value-type: Ki (nM)
Give the value in nM but do not write nM after it.

COC(=O)[C@@H]1C[C@H](OC(=O)CCl)C(=O)[C@H]2[C@@]1(C)CC[C@H]1C(=O)O[C@H](c3ccoc3)C[C@]21C [RB-48, 22-Chlorosalvinorin A] ... 32

Exercise: Using the record for COC(=O)[C@@H]1C[C@H](OC(=O)CBr)C(=O)[C@H]2[C@@]1(C)CC[C@H]1C(=O)O[C@H](c3ccoc3)C[C@]21C [RB-50, 22-Bromosalvinorin A] , report its Ki.
Key: 39.6

---

# Ki per entry
Molecular target: KOR (Homo sapiens, UniProt P41145)
Format: binding
Conditions: read-out: Ki b
Your answer is read as µM, so omit the unit and give the number.

COCC(=O)O[C@H]1C[C@@H](C(=O)OC)[C@]2(C)CC[C@H]3C(=O)O[C@H](c4ccoc4)C[C@]3(C)[C@H]2C1=O ... 0.431
COC(=O)C1CC(OC(=O)C(C)Cl)C(=O)C2C1(C)CCC1C(=O)OC(c3ccoc3)CC12C [RB-55, (22-R,S)-22-Chloro-22-methylsalvinorin A] ... 0.189

In the following, a different compound is considered.
Exercise: # get_value(readout='Ki', item= COC(=O)C1CC(OC(=O)C(C)Cl)C(=O)C2C1(C)CCC1C(=O)OC(c3ccoc3)CC12C (single isomer, unassigned) [RB-55-1, (22-S)-22-Chloro-22-methylsalvinorin A] )
Key: 0.269
